- Target or system: Rap guanine nucleotide exchange factor 4 (Homo sapiens)
- Measurement description: Confirmatory qHTS for agonist of cAMP-regulated guanine nucleotide exchange factor 4 (EPAC2) (AID 1645884);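 further: nucleotide exchange releases bodipy-GDP from Rap1 and this lowers its fluorescence; potency means the concentration at half of the fitted maximal effect; nearly all actives have a fitted effect of over 65% in size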
- Recorded conditions: EPAC2 GEF activity, Rap1B-BODIPY-GDP fluorescence; series mostly up to 154 µM
Results filed as inconclusive are left out. Calls of active or inactive are those of the source. The call rests on the fitted dose curve; in most records, active means well fitted activation curve with a large enough effect; inconclusive means small, poorly fitted or top-dose-only effect; inactive means no such curve, though single readings can be large or run the other way.
Measure name: Potency

Problem: State the recorded Potency for this entry: O=[N+]([O-])c1ccc(N2CCCCCC2)c2nonc12
Result: 100 µM (active)

Problem: Next: Cc1cc(C=C(C#N)C#N)ccc1N1CCCC1
Result: 112 µM (active)

Problem: Next: Nc1ccc2nonc2c1[N+](=O)[O-]
Result: 112 µM (active)

Problem: Next: CN1/C(=C\C=C2C(=O)NC(=S)NC2=O)C(C)(C)c2ccccc21
Result: 100 µM (active)

Problem: Next: COc1ccc(-n2c(O)c(/C=C/C=Nc3ccccc3)c(=O)[nH]c2=O)cc1
Result: 89.1 µM (active)

Problem: Next: Nc1ccc2ccc3cccc[n+]3c2c1
Result: 100 µM (active)
